Assay read-out Ki on Prostaglandin E2 receptor EP4 subtype (Homo sapiens, UniProt P35408); records merged from the literature.

compound | unit spec | modifier sign | Ki
CCCCCC(F)c1ccc(N2C(=O)CC[C@@H]2CCSc2nc(C(=O)O)cs2)cc1 (some centres unmarked) | µM | > | 10
C[C@H](NC(=O)c1c(Cl)sc(Cl)c1Cc1cccc(C(F)(F)F)c1)c1ccc(C(=O)O)cc1 | µM | = | 0.0008
CCCCCc1ccc2c(C(=O)Nc3cccc(OCC(=O)O)c3)cccc2c1 | µM | > | 10
CCCCCCC(O)c1ccc(N2C(=O)CC[C@@H]2CCSc2nc(C(=O)O)cs2)cc1 (single isomer, unassigned) | µM | = | 9.15
COc1cc(CC2CCCC2C(=O)NCc2ccc(C(=O)O)cc2)cc(OC)c1 (single isomer, unassigned) | µM | = | 0.03
CC(C)(C)c1cc(Cl)ccc1-c1cccc(C(O)/C=C/[C@H]2CCC(=O)N2CCCc2ccc(C(=O)O)cc2)c1 (some centres unmarked) | µM | = | 8.85
O=C(NCCc1ccc(C(=O)O)s1)c1cccc(-c2cccc(F)c2)c1 | µM | = | 0.739
O=C(NCc1ccc(C(=O)O)cc1)C1=C(Cc2cccc(C(F)(F)F)c2)CCC1 | µM | = | 0.007
